As shown below, each of these molecules has a reported pIC50 value.
- EXPERIMENTAL_TARGET: human recombinant kinase full-length AKT1 E17K (Homo sapiens, UniProt P31749, E17K)
- Construct: Purified human recombinant kinase full-length AKT1 E17K was expressed in insect cells; made in house; host or cells: insect cells
- Sequence (P31749 whole entry E17K): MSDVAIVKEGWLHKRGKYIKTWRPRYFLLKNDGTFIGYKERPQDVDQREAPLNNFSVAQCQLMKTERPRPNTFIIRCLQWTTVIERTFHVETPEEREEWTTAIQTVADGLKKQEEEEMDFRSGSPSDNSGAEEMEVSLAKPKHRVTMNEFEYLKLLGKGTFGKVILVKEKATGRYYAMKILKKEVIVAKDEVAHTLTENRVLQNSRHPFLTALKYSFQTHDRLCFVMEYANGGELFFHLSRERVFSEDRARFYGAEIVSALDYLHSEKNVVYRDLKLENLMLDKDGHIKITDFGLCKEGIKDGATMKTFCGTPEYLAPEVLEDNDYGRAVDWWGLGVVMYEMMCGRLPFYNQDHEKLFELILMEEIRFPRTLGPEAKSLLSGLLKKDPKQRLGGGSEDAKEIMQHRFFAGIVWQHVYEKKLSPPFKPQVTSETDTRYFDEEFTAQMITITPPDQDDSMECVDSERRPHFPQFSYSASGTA
- PROTOCOL_SUMMARY: AKT1 E17K kinase assay (TR-FRET, Lance)
- Assay type: biochemical
- CONDITION_DETAILS: 0.6 nM AKT1 E17K, 50 nM Ulight-CREBtide, either 50 μM ATP or 2 mM ATP, 60 min at RT
pIC50: −log10 of the molar value.

// worked examples, pIC50 included
>>> result("CN(Cc1ccc(-n2c(-c3cccnc3N)nc3ccc(-c4ccccc4)nc32)cc1)[C@H]1CC[C@@H](C(=O)O)CC1 [Compound I-95]")
"> 6.30"
>>> result("Cc1nc(NC(=O)C2CCC(C(C)C(=O)O)C2)ccc1-n1c(-c2cccnc2N)nc2ccc(-c3ccccc3)nc21 (stereo not shown) [Compound I-132]")
"5.70 to 6.30"
>>> result("Nc1ncccc1-c1nc2ccc(-c3ccccc3)nc2n1-c1ccc(NC(=O)C2CC3(CC(C(=O)O)C3)C2)cc1 (stereo not shown) [Compound I-46]")
"> 6.30"

May I ask what pIC50 has been recorded for Cc1nc(CN(C)[C@H]2CC[C@@H](C(=O)O)CC2)ccc1-n1c(-c2cccnc2N)nc2ccc(-c3ccccc3)nc21 [Compound I-184] ?
5.70 to 6.30

Data provenance: patent US20260200920A1
